# Lookup of reported Growth Rate keyed by entry
# Test system: Fibroblast
# MEASUREMENT_DESCRIPTION: Incucyte cell viability with human fibroblast; note: unitless GR value; below 1 slowed growth and below 0 cell loss
# Assay type: toxicity, cell-based
# ASSAY_CONTEXT: 18 h, 10 µM, compound concentration 10 uM, replicate number 1
Numbered stars: 1 amine (or outer) side, 2 acyl side, 3 side chain; on linkers, the order of the positions; unused ones are H or OH. Bridge positions count the residues as written; N and C are the ends. Square brackets hold non-standard residues; d marks the D form. Peptide text beside a SMILES is read from it. I, II: the chains in the order shown. Hexamethylenediamine = C(CCCN[*:2])CCN[*:1]; Dip = N[C@H](C(=O)O)C(c1ccccc1)c1ccccc1; Chg = N[C@H](C(=O)O)C1CCCCC1; NMeA = CN[C@@H](C)C(=O)O
Output: the number by itself.

Completed entries (count: 5):
CN[C@@H](C)C(=O)N[C@H](C(=O)N1CCC[C@H]1C(=O)N[C@H](C(=O)NCCCCCCNC(=O)[C@@H](NC(=O)[C@@H]1CCCN1C(=O)[C@@H](NC(=O)[C@H](C)NC)C1CCCCC1)C(c1ccccc1)c1ccccc1)C(c1ccccc1)c1ccccc1)C1CCCCC1 (I: H-[NMeA][Chg]P[Dip] / II: H-[NMeA][Chg]P[Dip]; linker I:C-II:C via Hexamethylenediamine) :: 0.47
C[C@H](CCC(=O)[O-])[C@H]1CC[C@H]2[C@@H]3[C@@H](O)C[C@@H]4C[C@H](O)CC[C@]4(C)[C@H]3CC[C@]12C.[Na+] :: 0.83
Fc1cccc(-n2cnc3c(NCc4nc5ccc(F)c(F)c5[nH]4)nc(N4CCOCC4)nc32)c1 :: 0.04
O=C(Nc1ccccc1Cl)c1cnc2ccc(C3CCNCC3)cn12.O=C(O)C(=O)O :: -0.51
CCOC(=O)Nc1ccc2c(c1)N(C(=O)CN(CC)CC)c1ccccc1CC2 :: 0.61

Given the entry Cc1ccc(C)c(OCCCC(C)(C)C(=O)O[C@@H]2O[C@H](C(=O)O)[C@@H](O)[C@H](O)[C@H]2O)c1 , report its measured Growth Rate.
-0.29

Again, but for Cc1nccc(COC(=O)N2C[C@@H]3[C@@H](CNC(=O)c4ccc5[nH]nnc5c4)[C@@H]3C2)n1
0.93

Same for CCN1CCN(Cc2ccc(NC(=O)c3ccc(C)c(NC(=O)c4cncc(-c5cccs5)c4)c3)cc2C(F)(F)F)CC1
-0.92

Repeat with CNC(=O)c1c(F)cccc1Nc1nc(Nc2cc3c(cc2OC)CCN3C(=O)CN(C)C)nc2[nH]ccc12
-0.23

Next compound up: COc1ccc(COc2ccc(Cc3cnc(N)nc3N)cc2OC)cc1 [GW632580X]
0.86

----------
# Test system: U2OS
# MEASUREMENT_DESCRIPTION: Incucyte cell viability with U2OS; note: unitless GR value; below 1 slowed growth and below 0 cell loss
# Format: toxicity, cell-based
# ASSAY_CONTEXT: human, 6 h, 10 µM, compound concentration 10 uM, replicate number 2
RECORDED_ENDPOINT: Growth Rate

Guide cases for Growth Rate, answers given:
COc1cc(/C=C(\C#N)C(=O)Nc2nnc(C(F)(F)F)s2)ccc1OCc1ccc(C(F)(F)F)cc1C(F)(F)F :: 0.63
CC(C)S(=O)(=O)c1ccccc1Nc1nc(N[C@@H]2CCCN(CCCCCCCNC(=O)COc3cccc4c3C(=O)N(C3CCC(=O)N(C)C3=O)C4=O)C2)ncc1Cl (some centres undefined) :: 0.49
CC1(C)CC(CN2CCC(F)(CNC(=O)c3cc(Cl)cc(Cl)c3)CC2)CCO1 (centres undefined) :: 0.8
CC(=O)O[C@H]1C(=O)[C@@]2(C)[C@H]([C@H](OC(=O)c3ccccc3)[C@]3(O)C[C@H](OC(=O)[C@H](O)[C@@H](NC(=O)c4ccccc4)c4ccccc4)C(C)=C1C3(C)C)[C@]1(OC(C)=O)CO[C@@H]1C[C@@H]2O :: -0.43
N#Cc1c(SCc2csc(-c3ccc(Cl)cc3)n2)nc(N2CCCC2)c(C#N)c1-c1ccc(OCCO)cc1 :: 0.8
CCOC(=O)CS(=O)(=O)c1ccc([C@@H](CO)NC(=O)c2cc3c(Cl)c(Cl)c(C)cc3n2C)cc1 :: 1
O=C1NC(=NCc2cccs2)SC1=Cc1ccc2ncccc2c1 :: 0.87
O=C(O)[C@]1(Cc2cccc(Nc3nccs3)n2)CC[C@@H](Oc2cccc(Cl)c2F)CC1 :: 0.59

Any idea what its Growth Rate is? The compound is c1ccc2c(-c3coc4cc(-c5ccc(N6CCNCC6)cc5)cnc34)ccnc2c1
0

Again, but for O=C(Nc1c(-c2cccs2)nc2ccc(Cl)cn12)c1ccc(Cl)cc1
0.69

Follow-up item: CN(C)[C@H]1CCN(c2cc(C(F)(F)F)c(C#N)c(Nc3cccc(CCC(=O)O)c3)n2)C1.O=C(O)C(F)(F)F
0.38

// repeat for CC1(C)Cc2nc(C3CCCC3)c([C@@H](F)c3ccc(C(F)(F)F)cc3)c(C3CCCCC3)c2[C@@H](O)C1 and report
0.48

Note, next up: COC1(C#Cc2ccc(Cl)c(-c3ncc4c(n3)-c3sc(NC(C)=O)nc3CC4)c2)CCN(C)CC1
0.62
